ASSAY METHOD TEXT: Pharmacokinetics of 5-fluoro-orotate in mice
Assay type: in vivo, Swiss white mice
EXPERIMENTAL SETUP: mouse, plasma, ip; 0.2 mg/kg i.p.; read-out: maximum drug concentration
MEASURED PROPERTY: Cmax

-- ask Recorded Cmax of O=C(O)c1[nH]c(=O)[nH]c(=O)c1F [5-fluoro-orotate] , please.
-- reply ≤ 2000 nM

---

ASSAY METHOD TEXT: Pharmacokinetics of 5-fluoro-orotate in mice
Assay type: in vivo, Swiss white mice
EXPERIMENTAL SETUP: single i.p. 5 mg/kg; read-out: plasma concentration after rapid drop
Experimental: FIG. 3 illustrates time-dependant changes in plasma 5-fluoroorotate concentration following single intraperitoneal injections of 5-fluoro-orotate at 0.2 mg/kg (.box-solid.), 1 mg/kg (.diamond-solid.), or 5 mg/kg (.tangle-solidup.). Two mice were used at each dosage level. At each time point, duplicate 200 μl samples of blood were drawn and analyzed for 5-fluoro-orotate concentration. […]
MEASURED PROPERTY: concentration

-- ask concentration for O=C(O)c1[nH]c(=O)[nH]c(=O)c1F [5-fluoro-orotate] ?
-- reply < 10 µM

---

Tested on: Plasmodium falciparum, Sierra Leone clone
ASSAY METHOD TEXT: Increase in parasitemia by light microscopy (Giemsa-stained smears), Sierra Leone clone
Type: cell-based, P. falciparum
EXPERIMENTAL SETUP: Table 2, light microscopy
MEASURED PROPERTY: pIC50
Please report pIC50 as the negative decimal logarithm of the molar concentration, giving only the number.

-- ask Form field: reported pIC50 of O=C(O)c1[nH]c(=O)[nH]c(=O)c1F [5-fluoro-orotate]
-- reply 8.60

---

Test system: HL-60 human promyelocytic leukemia cells
ASSAY METHOD TEXT: Toxicity to cultured HL-60 cells, number of viable cells
Format: cell-based
EXPERIMENTAL SETUP: HL-60, without uridine, read-out: IC50 Without Uridine
MEASURED PROPERTY: IC50 (µM)
Give the quantity in µM, number only.

-- ask Which measured IC50 value corresponds to O=C(O)c1[nH]c(=O)[nH]c(=O)c1F [5-fluoro-orotate] ?
-- reply 0.9
